# SYSTEM TESTED: Cruzipain (Trypanosoma cruzi)
# Sequence (P25779 whole entry): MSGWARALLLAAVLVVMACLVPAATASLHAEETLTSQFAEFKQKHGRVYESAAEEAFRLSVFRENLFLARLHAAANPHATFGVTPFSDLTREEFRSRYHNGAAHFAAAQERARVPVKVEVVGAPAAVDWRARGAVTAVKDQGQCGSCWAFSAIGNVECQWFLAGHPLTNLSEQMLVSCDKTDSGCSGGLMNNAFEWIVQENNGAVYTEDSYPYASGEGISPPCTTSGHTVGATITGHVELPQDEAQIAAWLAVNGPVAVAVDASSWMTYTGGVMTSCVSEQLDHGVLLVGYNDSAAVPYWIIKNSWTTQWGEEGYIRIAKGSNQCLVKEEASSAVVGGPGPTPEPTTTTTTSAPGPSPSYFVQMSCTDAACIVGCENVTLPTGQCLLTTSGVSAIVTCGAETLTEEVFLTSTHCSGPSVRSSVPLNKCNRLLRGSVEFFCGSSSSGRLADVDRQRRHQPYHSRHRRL
# ASSAY OVERVIEW: Inhibition of recombinant Trypanosoma cruzi cruzain using Z-FR-AMC as substrate preincubated for 10 mins followed by substrate addition measured for 5 mins by fluorimetric analysis relative to control
Overview of reported IC50 across a group of compounds:
READOUT LABEL: IC50 (µM)

[[record]]
compound = "CC(C)C[C@H](NC(=O)[C@H]1O[C@@H]1C(=O)O)C(=O)NCCCCN=C(N)N [E-64]"
readout_label = "IC50"
assay_result = 0.02

[[record]]
compound = "O=C1C=C(Nc2ccc(S(=O)(=O)Nc3ccccn3)cc2)C(=O)c2ccccc21"
readout_label = "IC50"
assay_result = 6.3

[[record]]
compound = "CC(C)=CCC1=C(O)c2ccccc2/C(=N/NC(N)=S)C1=O"
readout_label = "IC50"
assay_result = 34

[[record]]
compound = "CC(C)=CCC1=C(O)c2ccccc2/C(=N/NC(=O)c2ccncc2)C1=O"
readout_label = "IC50"
assay_result = 33


====

# SYSTEM TESTED: Rhodesain (Trypanosoma brucei rhodesiense, UniProt Q95PM0)
# Sequence (Q95PM0 whole entry): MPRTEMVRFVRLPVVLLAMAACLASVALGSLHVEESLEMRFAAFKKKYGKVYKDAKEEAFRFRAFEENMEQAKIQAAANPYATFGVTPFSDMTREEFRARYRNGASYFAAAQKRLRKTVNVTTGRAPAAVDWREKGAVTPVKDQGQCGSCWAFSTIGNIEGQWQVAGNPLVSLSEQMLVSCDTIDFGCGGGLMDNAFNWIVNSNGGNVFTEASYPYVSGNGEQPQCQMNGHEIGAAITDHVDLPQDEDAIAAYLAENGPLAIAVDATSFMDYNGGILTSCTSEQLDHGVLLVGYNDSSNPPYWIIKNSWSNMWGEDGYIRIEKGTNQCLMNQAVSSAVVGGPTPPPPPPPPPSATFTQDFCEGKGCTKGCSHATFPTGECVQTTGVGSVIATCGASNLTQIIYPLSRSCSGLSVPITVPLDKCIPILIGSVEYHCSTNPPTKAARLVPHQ
# ASSAY OVERVIEW: Inhibition of recombinant Trypanosoma brucei rhodesain using Z-FR-AMC as substrate preincubated for 10 mins followed by substrate addition measured for 5 mins by fluorimetric analysis relative to control
READOUT LABEL: log10 of IC50 (log10 of the value in µM)

[[record]]
sample_smiles = "CC(C)=CCC1=C(O)c2ccccc2/C(=N/NC(=O)c2ccncc2)C1=O"
readout_label = "log10 of IC50"
assay_result = 1.30

[[record]]
sample_smiles = "CC(C)C[C@H](NC(=O)[C@H]1O[C@@H]1C(=O)O)C(=O)NCCCCN=C(N)N"
readout_label = "log10 of IC50"
assay_result = -2.51

[[record]]
sample_smiles = "O=C1C=C(O)C(=O)c2ccccc21"
readout_label = "log10 of IC50"
assay_result = 1.52

[[record]]
sample_smiles = "O=C1C=C(Nc2ccc(S(=O)(=O)Nc3ccccn3)cc2)C(=O)c2ccccc21"
readout_label = "log10 of IC50"
assay_result = 0.26

[[record]]
sample_smiles = "CC(C)=CCC1=C(O)c2ccccc2/C(=N/NC(N)=S)C1=O"
readout_label = "log10 of IC50"
assay_result = 1.45

[[record]]
sample_smiles = "CC(C)=CCC1=C(O)C(=O)c2ccccc2C1=O"
readout_label = "log10 of IC50"
assay_result = 1.76


====

Overview of reported inhibition across a group of molecules:
# SYSTEM TESTED: UniProt:Q95PM0
# ASSAY OVERVIEW: Inhibition of recombinant Trypanosoma brucei rhodesain at 100 uM using Z-FR-AMC as substrate preincubated for 10 mins followed by substrate addition measured for 5 mins by fluorimetric analysis relative to control
READOUT LABEL: inhibition (%)

[[record]]
molecule = "CC(C)=CCC1=C(O)C(=O)c2ccccc2C1=O [LAPACHOL]"
assay_result = 70

[[record]]
molecule = "O=C1C=C(O)C(=O)c2ccccc21 [LAWSONE]"
assay_result = 77

[[record]]
molecule = "O=C1C=C(Br)C(=O)c2ccccc21"
assay_result = 50

[[record]]
molecule = "COC1=CC(=O)c2ccccc2C1=O"
assay_result = 27

[[record]]
molecule = "O=C1C=C(O)c2ccccc2/C1=N/NC(=O)c1ccncc1"
assay_result = 52

[[record]]
molecule = "O=C1C=C(Nc2ccccc2)C(=O)c2ccccc21"
assay_result = 61

[[record]]
molecule = "O=C(NNC1=CC(=O)c2ccccc2C1=O)c1ccncc1"
assay_result = 37

[[record]]
molecule = "CC(NC1=CC(=O)c2ccccc2C1=O)c1ccccc1 (stereo not drawn)"
assay_result = 23

[[record]]
molecule = "O=C1C(Cl)=C(Cl)C(=O)c2ccccc21"
assay_result = 56

[[record]]
molecule = "Cc1cc(NS(=O)(=O)c2ccc(NC3=CC(=O)c4ccccc4C3=O)cc2)no1"
assay_result = 1

[[record]]
molecule = "O=C1C=C(Nc2ccc(S(=O)(=O)Nc3ccccn3)cc2)C(=O)c2ccccc21"
assay_result = 93

[[record]]
molecule = "CC(C)=CCC1=C(O)c2ccccc2/C(=N/NC(N)=S)C1=O"
assay_result = 82

[[record]]
molecule = "CC(C)=CCC1=C(O)c2ccccc2/C(=N/NC(=O)c2ccncc2)C1=O"
assay_result = 87

